# TARGET_UNDER_TEST: T1, human CD47 expressed on cells (CD47 expressing CHO cells, Jurkat, HL60, DLD1, Raji) (human, UniProt Q08722 19-292)
# T1 construct: also called CHO-CD47; IAP
# EXPERIMENT_DESCRIPTION: flow cytometry on DLD1 cells, IgG, frequency
# EC50 (read off the curve) per entry

>  <BINDER>
Positive 3 (analogue antibody) (antibody, V domains shown) VH: QMQLVQSGAEVKKTGSSVKVSCKASGFNIKDYYLHWVRQAPGQALEWMGWIDPDQGDTEYAQKFQDRVTITRDRSMSTAYMELSSLRSEDTAMYYCNAAYGSSSYPMDYWGQGTTVTV VL: NIQMTQSPSAMSASVGDRVTITCKASQDIHRYLSWFQQKPGKVPKHLIYRANRLVSGVPSRFSGSGSGTEFTLTISSLQPEDFATYYCLQYDEFPYTFGGGTKVEIK

>  <RECORDED_VALUE>
~0.07 nM

$$$$
>  <BINDER>
ABU16 (IgG) (antibody, V domains shown) VH: RVQLQQSGAELVRPGTSVKVSCKASAYAFTNYLIEWVKKRPGQGLEWIGVINPGSGGTNYNEKFKGKATLTADKSSSTAYMQLSSLTSEDSAVYFCARGDGYGSLFAYWGQGTLVTVSA VL: RHCFNQSPAIMSASPGEKVTMTCSASSSVSYMHWYQQKSGTSPKRWIYDTSNLASGVPVRFSGSGSGTSYSLTISRMEAEDAATYYCQQWSNYPFTFGSGTKLELK

>  <RECORDED_VALUE>
~0.4 nM

$$$$

Next item in the queue.
Reported EC50 (read off the curve) of ABU9 (IgG, chimeric version of the Fab) (antibody, V domains shown) VH: EVQLQQSGPELVKPGASVKLSCKASGFTFTNYYIHWVKQRPGQGPEWIGWIYLGSGNTKYNEKFKGKATLTADTSSSTAYLQLSTLISEDSAVYYCARYDYDLYLDSWGQGTTVTVSS VL: DIKMNQSPSSLSASLGDTITITCHASQNINVWLSWYQQKPGNIPKLLIYKASNLHTGVPSRFSGSGSGTGFTLTISSLQPEDIATYYCQQGQSYPLTFGAGTKLELK : ~0.05 nM
